tgt: human ALK2 R206H (Homo sapiens, UniProt Q04771, R206H)
Construct: expressed in transfected cells; host or cells: HEK293 (ATCC CRL1573), lentivirus transduction, blasticidin selection
protocol-summary: Cell-based ALK2-R206H cell activity assay (Smad1-Ser463/Ser465 phosphorylation by AlphaLISA in HEK293-ALK2-R206H cells)
stated-conditions: read-out: Cell Line (Cell Assay IC50)
pIC50: −log10 of the molar value.
quantity-measured: pIC50

molecule	quantity-measured	reported-value
CCN1CC[C@H](c2ccc(-c3cc4c(N5CCN(C(=O)C6CC6)CC5)ccnn4c3)cc2)C1	pIC50	> 7.00
CC(C)N1CC[C@H](c2ccc(-c3cc4c(N5CCN(C(=O)[C@H]6C[C@H](O)C6)CC5)ccnn4c3)cc2)C1	pIC50	> 7.00
CC(C)N1CCC(c2ccc(-c3cc4c(N5CCN(C(=O)C6CCOC6)CC5)ccnn4c3)cc2)CC1 (centres unmarked)	pIC50	6.30 to 7.00
CCN1CCN(c2c(F)cc(-c3cc4c(N5CCN(C(=O)C6CC6)CC5)ccnn4c3)cc2F)CC1	pIC50	6.30 to 7.00
COC1(c2ccc(-c3cc4c(N5CCN(C(=O)C6CC6)CC5)ccnn4c3)cc2)CCN([C@H](C)COC(F)F)CC1	pIC50	> 7.00
CC(C)N1CC[C@@H](c2ccc(-c3cc4c(N5CCN(C(=O)C6CC6)CC5)ccnn4c3)nc2)C1	pIC50	> 7.00
CCNC(=O)N1CCN(c2ccnn3cc(-c4ccc([C@@]5(OC)CCCN(C(C)C)C5)c(F)c4)cc23)CC1	pIC50	> 7.00
CCOC(=O)N1CCN(c2ccnn3cc(-c4ccc(C5COCCN5)cc4)cc23)CC1 (centres unmarked)	pIC50	> 7.00
CC(C)N1CCC[C@@H](c2ccc(-c3cc4c(N5CCN(C(=O)[C@H]6C[C@H](O)C6)CC5)ccnn4c3)cc2)C1	pIC50	> 7.00
CC(C)N1CCC(c2ccc(-c3cc4c(N5CCN(C(=O)Nc6ccccc6)CC5)ccnn4c3)cc2)CC1	pIC50	6.30 to 7.00
O=C(C1CC1)N1CCN(c2ccnn3cc(-c4ccc(C5CNCCO5)cc4)cc23)CC1 (centres unmarked)	pIC50	> 7.00

* * *

pIC50 listing for selected compounds.
tgt: human ALK2 R206H (Homo sapiens, UniProt Q04771, R206H)
Construct: expressed in transfected cells; host or cells: HEK293 (ATCC CRL1573), lentivirus transduction, blasticidin selection
protocol-summary: Cell-based ALK2-R206H cell activity assay (Smad1-Ser463/Ser465 phosphorylation by AlphaLISA in HEK293-ALK2-R206H cells)
stated-conditions: read-out: Cell Line (Cell Assay IC50)
pIC50: −log10 of the molar value.

smiles-record	pIC50
CO[C@]1(c2ccc(-c3cc4c(N5CCN(C(=O)NC(C)C)CC5)ccnn4c3)cc2)CCN(C(C)C)C1	> 7.00
CC(C)N1CCC(c2ccc(-c3cc4c(N5CCN(C(=O)OC6COC6)[C@H](C)C5)ccnn4c3)cc2)CC1	> 7.00
CCN1CCC(c2ccc(-c3cc4c(N5CCN(C(=O)N6CCCC6)CC5)ccnn4c3)cc2)CC1	6.30 to 7.00

* * *

tgt: ALK2 R206H (GST-tagged mutant ALK2) (Homo sapiens, UniProt Q04771, R206H)
Construct: purchased Carna Bioscience or ThermoFisher 09-148 or PV6232
Sequence (Q04771 21-509 R206H): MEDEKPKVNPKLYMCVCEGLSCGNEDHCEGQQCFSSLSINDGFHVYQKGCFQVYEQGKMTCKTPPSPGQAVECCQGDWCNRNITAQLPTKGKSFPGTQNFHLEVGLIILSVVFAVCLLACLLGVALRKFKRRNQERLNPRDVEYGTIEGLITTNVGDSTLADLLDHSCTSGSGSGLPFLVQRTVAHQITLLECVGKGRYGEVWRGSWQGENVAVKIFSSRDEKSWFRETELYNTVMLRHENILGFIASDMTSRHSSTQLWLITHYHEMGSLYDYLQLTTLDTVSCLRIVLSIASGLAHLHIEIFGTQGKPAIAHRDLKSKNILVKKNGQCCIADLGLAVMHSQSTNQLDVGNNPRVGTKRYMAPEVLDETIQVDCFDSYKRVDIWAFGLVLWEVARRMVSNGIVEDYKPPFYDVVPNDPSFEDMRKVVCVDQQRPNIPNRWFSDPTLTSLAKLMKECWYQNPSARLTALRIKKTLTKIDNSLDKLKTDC
protocol-summary: ALK binding assay (LANTHASCREEN TR-FRET competitive binding, displacement of Kinase Tracer 178)
stated-conditions: ALK2 R206H, LANTHASCREEN TR-FRET competitive binding; read-out: Binding Assay (IC50)
Below: a set of entries, each annotated with reported IC50.

smiles-record	tgt	IC50
N[C@H](CO)c1ccc(-c2cc3c(N4CCN(C(=O)C5CC5)CC4)ccnn3c2)cc1	ALK2 R206H (GST-tagged mutant ALK2) (Homo sapiens, UniProt Q04771, R206H)	< 10 nM
CCN1CCN(c2ccc(-c3cc4c(N5CCN(C(=O)N6CCC6)CC5)ccnn4c3)cc2)CC1	ALK2 R206H (GST-tagged mutant ALK2) (Homo sapiens, UniProt Q04771, R206H)	10 to 50 nM
CCN1CCN(c2ccc(-c3cc4c(N5CCN(C(=O)C6(c7cccc(F)c7)CC6)CC5)ccnn4c3)cc2)CC1	ALK2 R206H (GST-tagged mutant ALK2) (Homo sapiens, UniProt Q04771, R206H)	10 to 50 nM
